Can you tell me GI50 for the items I'm about to list?
- Test system: SK-MEL-2
- PROTOCOL NOTES: NCI tumour cell line growth inhibition, 48 h
The source made the active and inactive calls. Cut-off read from the data, not from the text of the source: active = GI50 up to about 1.1 µM and inactive = higher. Where a SMILES comes first, the peptide text is derived from it. The star is where a group is joined. Boc = CC(C)(C)OC(=O)*

Solved cases (3 shown):
compound=COC(=O)C/N=C1\NC(=S)N(Cc2ccc(OC)cc2)C12CCCC2 test_value="> 100 µM (inactive)"
compound=N=C(N)N/N=C/c1c(Cl)nc2sccn12 test_value="> 10 µM (inactive)"
compound="CNC(=O)CNC(=O)C(NC(=O)CNC(=O)C1CCCN1C(=O)C(C)NC(=O)C(NC(=O)OC(C)(C)C)C(C)C)C(C)C (stereo not given) (Boc-VAPGVG-NHMe; configuration not given here)" test_value="> 100 µM (inactive)"

Give GI50 for each listed item.
1. O=C(NNC(=O)c1cc(/C=C/c2cccc([N+](=O)[O-])c2)nc(S)n1)Nc1ccc(Cl)cc1
2. CCCCCCCCCC(=O)NCCc1c[nH]c2ccc(OC)cc12

Reply |
1. > 100 µM (inactive)
2. 16.1 µM (inactive)

----------
- System: HOP-62
- PROTOCOL NOTES: NCI tumour cell line growth inhibition, 48 h
Activity calls are given as the source filed them. Rule as the data show it: active = GI50 up to about 1.1 µM and inactive = higher.
Give measured GI50 for each item. Keep answers brief.

# example entries with known answers
molecule="COC(=O)c1ccc(C)cc1CC1Cc2c(C)cccc2C1=O (centres undefined)" recorded_endpoint=GI50 test_value="13.6 µM (inactive)"
molecule=Nc1cc2c3c(cccc3c1)C(=O)N(c1ccc(OCCN3CCCC3)cc1)C2=O recorded_endpoint=GI50 test_value="15.9 µM (inactive)"
molecule="Cc1cccc(C)c1N1C(=O)C(=O)C(c2nc3ccccc3s2)/C(=N/NC(=O)NN)C1=O (centres undefined)" recorded_endpoint=GI50 test_value="> 100 µM (inactive)"
molecule="Cc1ccc(S(=O)(=O)NC(=O)NC(C(=O)O)C(C)O)cc1 (centres undefined)" recorded_endpoint=GI50 test_value="> 100 µM (inactive)"
molecule="CCC(=O)OCOc1ccc(/C=C2\\CCC(CN(C)C)C2=O)cc1 (centres undefined)" recorded_endpoint=GI50 test_value="15.2 µM (inactive)"

Value sought for every listed molecule: GI50.
1. CC1/C=C/C=C/CC/C=C/C=C/C=C/C=C/C(OC2OC(C)C(O)C(N)C2O)CC2OC(CC(O)C(O)CCC(O)CC(O)CC(O)CC(=O)OC(C)C(C)C1O)CC(O)C2C(=O)O (centres undefined)
2. CCOC(=O)CCSS(=O)(=O)C(F)(F)F
3. CNC(=O)c1ccc(C(=O)NCCCCCN(O)C(=O)CCC(=O)NCCCCCN(O)C(=O)CCC(=O)NCCCCCN(O)C(C)=O)c(O)c1O
4. COC(=O)[C@@H]1O[C@]12[C@@H](CO[Si](C)(C)C(C)(C)C)O[C@@H](n1cc(C)c(=O)[nH]c1=O)[C@@H]2O[Si](C)(C)C(C)(C)C
5. Cc1c2cnccc2c(C)c2c1c1ccccc1n2CCOC(=O)c1ccccc1
6. CCOP(=O)(/C=C\n1cc(C)c(=O)[nH]c1=O)OCC

Reply |
19.4 µM (inactive)
> 100 µM (inactive)
21.4 µM (inactive)
26.2 µM (inactive)
13.2 µM (inactive)
> 100 µM (inactive)

Working through the 8 molecules below one at a time, give GI50 for each.
1. Cc1nc2c(sc(=S)n2-c2ccccc2)c(=O)[nH]1
2. O=C(CSc1nnc(-c2ccc(/N=C\c3ccc(Cl)cc3)cc2)o1)Nc1ccccc1Cl
3. CSc1csc(-c2ccc(-c3ccc(-c4cc(SC)cs4)s3)s2)c1
4. O=S1(=O)OC(c2ccc(O)cc2)(c2ccc(O)cc2)c2ccccc21
5. O=C1C[C@H](COCc2ccccc2)NC(=O)C[C@H](COCc2ccccc2)NC(=O)C[C@H](COCc2ccccc2)N1
6. COc1cc(-c2cc(O)c(-c3ccc4ccccc4n3)c(O)n2)cc(OC)c1OC
7. COc1ccc(N2C(=O)CC(C3CC(C(C)(C)C)CCC3=O)C2=O)cc1 (centres undefined)
8. COC(=O)C1C2C=CC(C2)N1S(=O)(=O)c1ccccc1 (centres undefined)

Reply |
["> 100 µM (inactive)", "> 100 µM (inactive)", "> 100 µM (inactive)", "> 100 µM (inactive)", "17.9 µM (inactive)", "53.3 µM (inactive)", "> 100 µM (inactive)", "> 100 µM (inactive)"]

----------
- System: NCI-H522
- PROTOCOL NOTES: NCI tumour cell line growth inhibition, 48 h
Calls of active or inactive are those of the source. Cut-off read from the data, not from the text of the source: active = GI50 up to about 1.1 µM and inactive = higher.
Use one of these outcomes when replying: active, inactive

molecule=C=C1C(=O)O[C@@H]2C(=O)[C@@H](C)CCC/C(C)=C/CC[C@@]3(C)O[C@@H]3C[C@@H]12 cat=inactive
molecule="CC12OC(=O)[C@@]3(O)CCC4C(C[C@H]5O[C@]56CC=CC(=O)[C@]46C)C45OC[C@H]6C(=O)O[C@@H]1C[C@@]6(C)[C@H](C4=O)C23O5 (some centres not stated)" cat=active
molecule="CC1C(=O)C(C)C(c2cccs2)N(N=O)C1c1cccs1 (configuration not stated)" cat=inactive

Ask | // return assay outcome for COc1ccc2c3c1OC1C(F)C=CC4(O)C(C2)NCCC314 (configuration not stated)
Reply | active

Ask | What did this assay record as the result for "CCN(CC)c1ccc2cc3ccc(N(CC)CC)cc3[o+]c2c1" ?
Reply | inactive

Ask | Which result was noted for this molecule in the test: "CC(C)c1nc(Cl)c(Cl)c(Cl)n1"
Reply | active

Ask | So what was the verdict on "O=NN1CCN=C1c1ccc([N+](=O)[O-])cc1" in this test?
Reply | inactive

----------
So I've got a bunch of molecules here, and I need their GI50 values.
- Tested on: RPMI-8226
- PROTOCOL NOTES: NCI tumour cell line growth inhibition, 48 h
Activity calls are given as the source filed them. No stated cut-off is given here; in the data, active = GI50 up to about 1.1 µM and inactive = higher.

Examples with answers:
molecule=CN(C(=N)c1ccccc1)c1ccccc1 test_value="> 100 µM (inactive)"
molecule=C=C1c2ccccc2Oc2nc3nc(N)c(C#N)c(N)c3c(N)c21 test_value="24.4 µM (inactive)"
molecule="CCOC(=O)C(=O)/C=C(\\C)Nc1c(NC2OCC(OC(C)=O)C(OC(C)=O)C2OC(C)=O)nc(SC)[nH]c1=O (stereo not given)" test_value="> 100 µM (inactive)"
molecule=c1ccc(CCCC2Sc3cccc4cccc(c34)S2)cc1 test_value="52.7 µM (inactive)"
molecule="COc1ccc(C2C(=O)c3ccc(OC)cc3OC2c2cccnc2)cc1 (stereo not given)" test_value="> 100 µM (inactive)"
molecule=O=C(O)CCSC(=O)Nc1ccccc1Cl test_value="> 100 µM (inactive)"
molecule="COC(=O)C1=CC2OC13CC1CCC3(C2=O)C1(C)C (stereo not given)" test_value="15.1 µM (inactive)"
molecule="C#C[C@]1(O)CC[C@H]2[C@@H]3CCC4=C/C(=N/NC(=O)c5cccc6c(=O)c7ccccc7[nH]c56)CCC4[C@H]3CC[C@@]21C (stereo not given in full)" test_value="28.8 µM (inactive)"
molecule="COc1ccc(/N=N/c2c(C)c(C#N)c(=S)n(C3OC(CO)C(O)C(O)C3O)c2C)cc1 (stereo not given)" test_value="39.2 µM (inactive)"

Read the next record carefully.
Ask | Could you tell me which GI50 is on file for "O=C1NC(Nc2cccc(Cl)c2)=N/C1=C\c1ccc(Cl)c(Cl)c1" ?
Reply | 3.99 µM (inactive)

----------
- System: UACC-257
- PROTOCOL NOTES: NCI tumour cell line growth inhibition, 48 h
The source made the active and inactive calls. Rule as the data show it: active = GI50 up to about 1.1 µM and inactive = higher.
RECORDED ENDPOINT: GI50

The examples below pair each entry with its known result.
compound=Cn1c(=O)c2c3oc(=O)cc(O)c3c(=O)n3c4ccccc4n(c1=O)c23 recorded_endpoint=GI50 test_value="26.1 µM (inactive)"
compound="Cc1cccc(C)c1N1C(=O)C(=O)C(c2nc3ccccc3s2)/C(=N/NC(=O)NN)C1=O (stereo not given)" recorded_endpoint=GI50 test_value="> 100 µM (inactive)"
compound=C/C(CC(=O)Nc1ccc(NC(=O)C/C(C)=N\NC(N)=O)cc1)=N/NC(N)=O recorded_endpoint=GI50 test_value="> 100 µM (inactive)"
compound="COC(=O)C1CC2C=CC=CC(=O)C2(C)C1 (stereo not given)" recorded_endpoint=GI50 test_value="38.7 µM (inactive)"
compound=CCCN/C(N)=N/C#N recorded_endpoint=GI50 test_value="> 100 µM (inactive)"
compound="CCOC(=O)C(=O)/C=C(\\C)Nc1c(NC2OCC(OC(C)=O)C(OC(C)=O)C2OC(C)=O)nc(SC)[nH]c1=O (stereo not given)" recorded_endpoint=GI50 test_value="> 100 µM (inactive)"
compound=Cc1ccc(-c2nc3n(c2/C=N\N=C(N)N)CCS3)cc1 recorded_endpoint=GI50 test_value="16.6 µM (inactive)"
compound=C=C1c2ccccc2Oc2nc3nc(N)c(C#N)c(N)c3c(N)c21 recorded_endpoint=GI50 test_value="53.1 µM (inactive)"
compound="COC(=O)c1cc2c(cc1CC(Cc1ccc3c(c1)CCC3)C(=O)OC)CCC2 (stereo not given)" recorded_endpoint=GI50 test_value="13.7 µM (inactive)"

Ask | Which GI50 value belongs to "CCOC(=O)CCSc1nc2ccc(I)cc2c(=O)n1Cc1ccccc1" ?
Reply | 25.5 µM (inactive)
